Origin of the recorded values: PubChem BioAssay (NCI)

Assay: NCI Yeast Anticancer Drug Screen. Data for the cln2 rad14 strain (AID 165)
Conditions: S. cerevisiae cln2 rad14 strain, at 50.0 µM (retest, dose inferred, filed as 5.0)
This is part of a sample that, as a whole, favours compounds with a hit. Of some 79,000 tested, about 15% had one in any assay. Active and inactive are the calls of the source. Rule as the data show it: active = growth inhibition above about 70%; inactive = the rest.
One label from this list, please: active, inactive

For orientation, consider the following solved cases.
compound: Cc1nc(N)sc1N=Nc1cccc(Cl)c1Cl
label: inactive
--
compound: COc1c2occc2c(OC)c2c(C)c(C(=O)OCCN3CCOCC3)oc12
label: inactive
--
compound: CCCCCN(CCCCC)CC(O)c1cc2ccccc2c2ccccc12 (configuration not stated)
label: active
--
compound: CCCCCCCCCCCCCCCCNc1ccn(C2CC(OP(=O)(O)OCC3OC(n4cc(CC)c(=O)[nH]c4=O)CC3O)C(CO)O2)c(=O)n1 (configuration not stated)
label: inactive
--
compound: CCC[CH2][Sn]([CH2]CCC)([O]C(=O)c1cc(F)cc(F)c1)[O]C(=O)c1cc(F)cc(F)c1
label: inactive

(Q) Please state the recorded outcome for this compound: Clc1ccc2nc3c(c(N4CCOCC4)c2c1)CCCC3
(A) active

(Q) What do you have for OC(c1cc2ccccc2o1)c1cc2ccccc2s1 (configuration not stated) ?
(A) active

(Q) Then what about the compound CCCCN(C)C(=S)N/N=C(\C)c1ccccn1 ?
(A) active

(Q) # iterate: CCCCOc1c(OCCCC)c(=O)c1=O
(A) inactive

(Q) Similarly, OCCOCCO[P+]1(OCCOCCO)n2c3ccc2C(c2ccccc2)=C2C=CC(=N2)C(c2ccccc2)=c2ccc(n21)=C(c1ccccc1)C1=NC(=C3c2ccccc2)C=C1 ?
(A) active
